# TEST_SYSTEM: T1, PUF4 RNA-binding domain (Saccharomyces cerevisiae, UniProt P25339 537-888)
# T1 sequence: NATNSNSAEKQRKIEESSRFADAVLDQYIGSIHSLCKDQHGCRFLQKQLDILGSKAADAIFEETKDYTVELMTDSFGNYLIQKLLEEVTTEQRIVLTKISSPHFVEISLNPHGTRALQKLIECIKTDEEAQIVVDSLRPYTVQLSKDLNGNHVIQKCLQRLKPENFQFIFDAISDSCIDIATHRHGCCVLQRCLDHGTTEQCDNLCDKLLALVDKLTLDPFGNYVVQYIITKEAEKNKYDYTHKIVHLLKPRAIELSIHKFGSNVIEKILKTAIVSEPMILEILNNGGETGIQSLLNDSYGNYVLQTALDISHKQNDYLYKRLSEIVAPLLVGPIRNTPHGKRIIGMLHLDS
# EXPERIMENT_NOTES: Mg; RNA-MaP; 20 mM Na-HEPES pH 7.4, 30 mM KOAc, 0.75 mM MgCl2, 0.1% Tween-20, 5% glycerol, 0.1 mg/mL BSA, 2 mM DTT; 25 C; 0.0125-409.6 nM protein
# CONDITION_NOTES: tags: N-His6-TEV cleaved; C-SNAP kept, Cy3B-labelled; label: tethered on chip by stalled RNA polymerase
RECORDED_METRIC: Kd (µM)
Just the number please, in µM, no unit attached.

## Input Would you mind telling me what Kd value was observed for Ie_S2_P5E.1_K5.1_C5.1_H5.1_A5.1_[+5CCCT]_F5.1_T5.1 (ssRNA) RNA: UUUGAUUAAUAUGAUAUCGUUCUUUCUUGUAUCCCUUAUUAUUCUUUCUCGAUAUCAUAUUAAUCUUU ?
## Output 0.0119

## Input Do the same for UCUCUUUGUACCAUCCUCUCUU (ssRNA) [Ic_S1_P5E.1_K5.1_C5.1_H5.1_A5.1_[T5C]_[T6C]_F5.1_[T9C]_[A10C]_T5.1] please
## Output 0.0125

## Input Do the same for UCUCUUCUUGUAUUAUUAGUUCUCUU (ssRNA) [Id_ii_S1_P5E.2_K5.1_C5.2_H5.1_A5.1_F5.1_T5.2_[T11G]_[A12T]] please
## Output 0.00387

## Input Do the same for Id_ii_S2_P4E.3_K4.2_C4.2_[C-2A]_[T-1A]_H4.2_A4.1_F4.1_T4.2_[G10C]_[T11A] (ssRNA) RNA: UUUGAUUAAUAUGAUAUCGUUCUUUCUAAUAUAUAUUACAUUCUUUCUCGAUAUCAUAUUAAUCUUU please
## Output 0.16

## Input Do the same for Ic_S4_P4E.1_K4.1_C4.1_H4.1_A4.1_[T5C]_F4.1_[A9T]_T4.1 (ssRNA) RNA: UUUGACAACUGAUCGUUCUUUCUUGUACAUUUUUCUUUCUCGAUCAGUUGUCUUU please
## Output 0.00194

## Input Do the same for Ib_S4_P4E.1_K4.1_C4.1_H4.1_[G2T]_[T3C]_A4.1_F4.1_T4.1 (ssRNA) RNA: UUUGACAACUGAUCGUUCUUUCUUUCAUAUUAUUCUUUCUCGAUCAGUUGUCUUU please
## Output 2

## Input Do the same for UCUCUUUCCCUGUAUAUUAUCUCUU (ssRNA) [Ie_S1_P4E.1_K4.1_C4.1_H4.1_[+1CCCT]_A4.1_F4.1_T4.1] please
## Output 0.0012

## Input Do the same for UCUCUUUGUAUAAGCCUCUCUU (ssRNA) [Ic_S1_P5E.1_K5.1_C5.1_H5.1_A5.1_[T6A]_F5.1_[T8G]_[T9C]_[A10C]_T5.1] please
## Output 0.794

## Input Do the same for Id_ii_S2_P3E.2_K3.1_C3.2_[C-2G]_H3.1_A3.1_F3.1_T3.2_[T9C]_[A10T] (ssRNA) RNA: UUUGAUUAAUAUGAUAUCGUUCUUUCUGUUGUAUAUACUUUCUUUCUCGAUAUCAUAUUAAUCUUU please
## Output 0.0445

## Input Do the same for UCUCUUCUUGUAUUAUUAUCUCUCUU (ssRNA) [Id_ii_S1_P5E.2_K5.1_C5.2_H5.1_A5.1_F5.1_T5.2_[A12C]] please
## Output 0.00507

## Input Do the same for UCUCUUGUUGUAUAUAUGUCUCUU (ssRNA) [Id_ii_S1_P3E.2_K3.1_C3.2_[C-2G]_H3.1_A3.1_F3.1_T3.2_[A10G]] please
## Output 0.00899

## Input Do the same for UCUCUUUGUACACGCGUCUCUU (ssRNA) [Ic_S1_P5E.1_K5.1_C5.1_H5.1_A5.1_[T5C]_[T6A]_[A7C]_F5.1_[T8G]_[T9C]_[A10G]_T5.1] please
## Output 0.709

## Input Do the same for ACAAACGGUAUAUAUAUAACAAAC (ssRNA) [Id_ii_S3_P3E.3_K3.2_C3.2_[C-2G]_[T-1G]_H3.2_A3.1_F3.1_T3.2] please
## Output 0.55

## Input Do the same for UCUCUUUGUAUUUUGUCUCUU (ssRNA) [Ic_S1_P4E.1_K4.1_C4.1_H4.1_A4.1_[A6T]_F4.1_[A9G]_T4.1] please
## Output 0.0152

## Input Do the same for Id_ii_S4_P5E.2_K5.1_C5.2_[C-2T]_[T-1A]_H5.1_A5.1_F5.1_T5.2_[T11A]_[A12C] (ssRNA) RNA: UUUGACAACUGAUCGUUCUUUCUUAUGUAUUAUUAACUUCUUUCUCGAUCAGUUGUCUUU please
## Output 0.00912

## Input Do the same for UCUCUUUGUAGCAUCUCUCUU (ssRNA) [Ic_S1_P4E.1_K4.1_C4.1_H4.1_A4.1_[T5G]_[A6C]_[T7A]_F4.1_[A9C]_T4.1] please
## Output 0.398

## Input Do the same for Ic_S4_P4E.1_K4.1_C4.1_H4.1_A4.1_[A6G]_[T7G]_F4.1_[T8C]_[A9C]_T4.1 (ssRNA) RNA: UUUGACAACUGAUCGUUCUUUCUUGUAUGGCCUUCUUUCUCGAUCAGUUGUCUUU please
## Output 1.94

## Input Do the same for Ic_S2_P5E.1_K5.1_C5.1_H5.1_A5.1_[T5C]_[T6A]_[A7C]_F5.1_[T8C]_[T9C]_[A10C]_T5.1 (ssRNA) RNA: UUUGAUUAAUAUGAUAUCGUUCUUUCUUGUACACCCCUUCUUUCUCGAUAUCAUAUUAAUCUUU please
## Output 0.0673

## Input Do the same for UCUCUUUCUUGUAAAUAAAUCUCUU (ssRNA) [Id_iii_S1_P3E.8_K3.4_C3.3_H3.1_A3.2_F3.1_T3.2_[T9A]] please
## Output 0.0402

## Input Do the same for Ib_S4_P3E.1_K3.1_C3.1_H3.1_[T3C]_A3.1_F3.1_[A8T]_T3.1 (ssRNA) RNA: UUUGACAACUGAUCGUUCUUUCUUGCAUAUUUUCUUUCUCGAUCAGUUGUCUUU please
## Output 1.51

## Input Do the same for Id_ii_S2_P5E.3_K5.2_C5.2_[C-2G]_[T-1C]_H5.2_A5.1_F5.1_T5.2_[T11A] (ssRNA) RNA: UUUGAUUAAUAUGAUAUCGUUCUUUCUGCUAUAUUAUUAAAUUCUUUCUCGAUAUCAUAUUAAUCUUU please
## Output 0.394

## Input Do the same for UCUCUUUGUAAACUCUCUCUU (ssRNA) [Ic_S1_P4E.1_K4.1_C4.1_H4.1_A4.1_[T5A]_[T7C]_F4.1_[A9C]_T4.1] please
## Output 0.0338
